Target: T1, RBFOX1 RRM RbFoxmut (Fox-RRM*) (Homo sapiens, UniProt Q9NWB1 109-208, R118D;E147R;N151S;E152T)
T1 sequence: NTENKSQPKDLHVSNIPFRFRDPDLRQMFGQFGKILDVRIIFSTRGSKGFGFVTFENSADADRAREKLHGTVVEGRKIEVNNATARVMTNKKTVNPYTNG
Assay: EMSA; HiTS-Eq, 1 nM pool, 10 min; buffer printed only for the single-RNA assays: 10 mM Tris pH 7.5, 150 mM NaCl, 3.4 mM EDTA, 0.001% NP-40, 30 C
Details: tags: His6 N-terminal (pET28a); label: 5' 32P
In all, about 16,000 sequences were measured (“ka relative to ugcaugu”: median about 0.096, highest 2% from about 0.35 on). This is one part of a sample in which the highest values are shown more often than they occur.
Measured parameter: binding signal

Respond only with binding signal recorded for UGGAUUG (DNA:RNA) RNA: GGGAGACCGGAAUUCAGAUUGUCCUGGAUUGUUAAAUCCCGUCGUAGCCACCA DNA 1: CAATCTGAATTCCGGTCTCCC DNA 2: TGGTGGCTACGACGGGATT
0.526 KA relative to UGCAUGU

Respond only with binding signal recorded for GUGCUCG (DNA:RNA) RNA: GGGAGACCGGAAUUCAGAUUGUCCGUGCUCGUUAAAUCCCGUCGUAGCCACCA DNA 1: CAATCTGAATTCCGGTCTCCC DNA 2: TGGTGGCTACGACGGGATT
0.226 KA relative to UGCAUGU

Respond only with binding signal recorded for CAACCGG (DNA:RNA) RNA: GGGAGACCGGAAUUCAGAUUGUCCCAACCGGUUAAAUCCCGUCGUAGCCACCA DNA 1: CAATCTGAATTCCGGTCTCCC DNA 2: TGGTGGCTACGACGGGATT
0.0516 KA relative to UGCAUGU

Respond only with binding signal recorded for UGGGAUC (DNA:RNA) RNA: GGGAGACCGGAAUUCAGAUUGUCCUGGGAUCUUAAAUCCCGUCGUAGCCACCA DNA 1: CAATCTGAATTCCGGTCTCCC DNA 2: TGGTGGCTACGACGGGATT
0.357 KA relative to UGCAUGU

Respond only with binding signal recorded for AGAUUGG (DNA:RNA) RNA: GGGAGACCGGAAUUCAGAUUGUCCAGAUUGGUUAAAUCCCGUCGUAGCCACCA DNA 1: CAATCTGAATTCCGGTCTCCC DNA 2: TGGTGGCTACGACGGGATT
0.125 KA relative to UGCAUGU

Respond only with binding signal recorded for UGGACUC (DNA:RNA) RNA: GGGAGACCGGAAUUCAGAUUGUCCUGGACUCUUAAAUCCCGUCGUAGCCACCA DNA 1: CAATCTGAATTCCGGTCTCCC DNA 2: TGGTGGCTACGACGGGATT
0.0856 KA relative to UGCAUGU

Respond only with binding signal recorded for UGGAGUC (DNA:RNA) RNA: GGGAGACCGGAAUUCAGAUUGUCCUGGAGUCUUAAAUCCCGUCGUAGCCACCA DNA 1: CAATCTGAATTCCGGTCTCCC DNA 2: TGGTGGCTACGACGGGATT
0.18 KA relative to UGCAUGU

Respond only with binding signal recorded for UGGAUCU (DNA:RNA) RNA: GGGAGACCGGAAUUCAGAUUGUCCUGGAUCUUUAAAUCCCGUCGUAGCCACCA DNA 1: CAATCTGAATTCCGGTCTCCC DNA 2: TGGTGGCTACGACGGGATT
0.259 KA relative to UGCAUGU

Respond only with binding signal recorded for UGGAGAA (DNA:RNA) RNA: GGGAGACCGGAAUUCAGAUUGUCCUGGAGAAUUAAAUCCCGUCGUAGCCACCA DNA 1: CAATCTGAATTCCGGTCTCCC DNA 2: TGGTGGCTACGACGGGATT
0.0999 KA relative to UGCAUGU

Respond only with binding signal recorded for UCCUGGA (DNA:RNA) RNA: GGGAGACCGGAAUUCAGAUUGUCCUCCUGGAUUAAAUCCCGUCGUAGCCACCA DNA 1: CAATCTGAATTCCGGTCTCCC DNA 2: TGGTGGCTACGACGGGATT
0.0709 KA relative to UGCAUGU

Respond only with binding signal recorded for UACACUA (DNA:RNA) RNA: GGGAGACCGGAAUUCAGAUUGUCCUACACUAUUAAAUCCCGUCGUAGCCACCA DNA 1: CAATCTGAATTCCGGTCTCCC DNA 2: TGGTGGCTACGACGGGATT
0.0954 KA relative to UGCAUGU

Respond only with binding signal recorded for CGAAUGG (DNA:RNA) RNA: GGGAGACCGGAAUUCAGAUUGUCCCGAAUGGUUAAAUCCCGUCGUAGCCACCA DNA 1: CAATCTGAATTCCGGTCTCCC DNA 2: TGGTGGCTACGACGGGATT
0.72 KA relative to UGCAUGU

Respond only with binding signal recorded for ACGUCAA (DNA:RNA) RNA: GGGAGACCGGAAUUCAGAUUGUCCACGUCAAUUAAAUCCCGUCGUAGCCACCA DNA 1: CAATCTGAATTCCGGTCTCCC DNA 2: TGGTGGCTACGACGGGATT
0.0727 KA relative to UGCAUGU

Respond only with binding signal recorded for UGGAAUC (DNA:RNA) RNA: GGGAGACCGGAAUUCAGAUUGUCCUGGAAUCUUAAAUCCCGUCGUAGCCACCA DNA 1: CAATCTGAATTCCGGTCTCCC DNA 2: TGGTGGCTACGACGGGATT
0.458 KA relative to UGCAUGU

Respond only with binding signal recorded for GGCCGCA (DNA:RNA) RNA: GGGAGACCGGAAUUCAGAUUGUCCGGCCGCAUUAAAUCCCGUCGUAGCCACCA DNA 1: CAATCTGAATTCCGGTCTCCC DNA 2: TGGTGGCTACGACGGGATT
0.107 KA relative to UGCAUGU

Respond only with binding signal recorded for AGAAUGG (DNA:RNA) RNA: GGGAGACCGGAAUUCAGAUUGUCCAGAAUGGUUAAAUCCCGUCGUAGCCACCA DNA 1: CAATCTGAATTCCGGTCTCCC DNA 2: TGGTGGCTACGACGGGATT
0.541 KA relative to UGCAUGU

Respond only with binding signal recorded for GUGUCUU (DNA:RNA) RNA: GGGAGACCGGAAUUCAGAUUGUCCGUGUCUUUUAAAUCCCGUCGUAGCCACCA DNA 1: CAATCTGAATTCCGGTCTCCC DNA 2: TGGTGGCTACGACGGGATT
0.101 KA relative to UGCAUGU
